Where do the numbers come from? From paper PMC5414581.

Biological target: T1, human NPS receptor, 107N variant (human) (UniProt Q6W5P4)
T1 sequence: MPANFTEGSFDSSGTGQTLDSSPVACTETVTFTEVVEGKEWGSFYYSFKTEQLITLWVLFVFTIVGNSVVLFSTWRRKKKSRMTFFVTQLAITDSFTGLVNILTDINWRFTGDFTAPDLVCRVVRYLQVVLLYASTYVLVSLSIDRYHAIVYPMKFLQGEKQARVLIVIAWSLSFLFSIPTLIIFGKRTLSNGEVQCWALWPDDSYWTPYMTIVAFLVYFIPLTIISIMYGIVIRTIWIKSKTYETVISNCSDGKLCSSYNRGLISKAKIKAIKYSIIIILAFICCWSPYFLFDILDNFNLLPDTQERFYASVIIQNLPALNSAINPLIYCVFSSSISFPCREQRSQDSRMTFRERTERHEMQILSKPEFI
Where no end group is shown, it is not given here.
reportedEndpoint: EC50 of cAMP accumulation, HEK 293T hNPSR-107N cells (nM)

1 = SFRNGV-NH2 [1. SerPheArgAsnGlyVal-NH2]
2 = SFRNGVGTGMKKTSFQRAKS [Neuropeptide S]
Query string: # min-compare on EC50 of cAMP accumulation, HEK 293T hNPSR-107N cells between 1 and 2 // return label of chosen record
Result string: 2
(2: 48.9 nM, 1: 427 nM)
